For each of the compounds below, state its log10(solubility kinetic).
conditions: buffer; pH 7.4; 200.0 µM
A difference of one corresponds to tenfold solubility kinetic; all values are log10 with solubility kinetic in µg/mL.

Record excerpt, results attached:
>  <compound>
CCOC(=O)c1cc(NC(=O)CCC(=O)O)ccc1N1CCCCC1

>  <log10(solubility kinetic)>
1.71

$$$$
>  <compound>
CC(NC(=O)COC(=O)C12CC3CC(CC(Br)(C3)C1)C2)c1ccccc1 (centres undefined)

>  <log10(solubility kinetic)>
1.31

$$$$
>  <compound>
O=C(COC(=O)Cc1ccc([N+](=O)[O-])cc1)NCc1ccc2c(c1)OCO2

>  <log10(solubility kinetic)>
1.74

$$$$
>  <compound>
CN1CCN(c2cc(C(F)(F)F)nc3ccc(F)cc23)CC1

>  <log10(solubility kinetic)>
1.64

$$$$

Could you report log10(solubility kinetic) for every entry in the following list?
1. N#Cc1cc2c(nc1Cl)CCC2
2. COc1cc2ccccc2cc1C(=O)N1CCN(C(C)=O)CC1
3. CC(O)c1nc2ccccc2n1Cc1ccccc1 (centres undefined)
4. CC1C(=O)N2CCCc3cc(NC(=O)CC(C)(C)C)cc1c32 (centres undefined)
5. CSc1ccc(S(=O)(=O)N2CCC(C(=O)NCc3ccccn3)CC2)cc1
6. CC(C)c1ccc(-c2csc3nc[nH]c(=O)c23)cc1
7. O=C1CN(C(=O)CNCc2ccc(Cl)cc2)c2ccccc2N1
8. COc1ccc2nc(C)cc(N3CCN(c4ccccc4)CC3)c2c1

1. 1.31
2. 1.67
3. 1.55
4. 1.60
5. 1.70
6. 0.96
7. 1.60
8. 0.43

----------
settings: buffer; pH 7.4; 200.0 µM
Think of 30 µg/mL as a floor: if solubility kinetic stands on it or above, it is criterion met; beneath it, criterion not met.

Record excerpt, results attached:
>  <molecule>
Cc1ccc(C)c(N2CC(C(=O)O)CC2=O)c1 (stereo unspecified)

>  <category-label>
criterion met

$$$$
>  <molecule>
O=C(/C=C/c1ccc([N+](=O)[O-])cc1)OCC(=O)N1CCCCCC1

>  <category-label>
criterion not met

$$$$
>  <molecule>
CCOC(=O)C1=C(C)NC(C)=C(C(=O)OCC)C1C(=O)OCC(=O)NCc1ccccc1OC

>  <category-label>
criterion met

$$$$
>  <molecule>
CCOC(=O)c1c(NC(=O)CN2CCCCC2)sc(C)c1C

>  <category-label>
criterion not met

$$$$
>  <molecule>
Cc1cccc(NC(=S)NC2CC3C=CC2C3)c1 (stereo unspecified)

>  <category-label>
criterion not met

$$$$
>  <molecule>
Cc1ccccc1OCc1ccc(C(=O)N2CC(C)OC(C)C2)o1 (stereo unspecified)

>  <category-label>
criterion met

$$$$
>  <molecule>
COc1ccc(NC(=O)N2CCOCC2)cc1

>  <category-label>
criterion met

$$$$
>  <molecule>
CCN(CC)CCn1c(NC(=O)c2ccc(C)cc2)nc2ccccc21

>  <category-label>
criterion not met

$$$$
>  <molecule>
Cn1nc(-c2ccc(Cl)cc2)cc1NC(=O)CCCC(=O)O

>  <category-label>
criterion met

$$$$
>  <molecule>
Cc1c(C(=O)OC(C)C(=O)N(C)Cc2ccccc2)oc2ccccc12 (stereo unspecified)

>  <category-label>
criterion not met

$$$$

Can COC(=O)c1cc2occc2n1Cc1nc(-c2ccccc2F)oc1C be said to have solubility kinetic at or above 30 µg/mL?
criterion not met

Can C=CCNC(=O)COc1c(C)ccc(C)c1C be said to have solubility kinetic at or above 30 µg/mL?
criterion met

Can O=C(Cn1c(=O)sc2ccccc21)Nc1ccc(O)cc1 be said to have solubility kinetic at or above 30 µg/mL?
criterion met

Can Nc1nc2ccc(Cc3ccncc3)cc2s1 be said to have solubility kinetic at or above 30 µg/mL?
criterion met

Can CC(=O)NC1CCN(CC(=O)Nc2cccc([N+](=O)[O-])c2)CC1 be said to have solubility kinetic at or above 30 µg/mL?
criterion met

src = PubChem BioAssay AID1996
